# System: c-Src;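 also: 11-residue human phosphosite peptides and single-mutation variants displayed on the E. coli surface, counted by deep sequencing, each peptide's frequency after selection divided by its frequency in the unselected input library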;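 also: frequency after pTyr selection over input frequency; kinase dosed for 20-30% of maximal phosphorylation in three min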
# Assay method text: phosphorylation enrichment, bacterial display (enrichment ratio); higher = better substrate or ligand; peptides without Tyr show the background
Property: phosphorylation enrichment
Give bare numbers.

Look over these answered cases.
Query sequence	Test target	Property	Observed value
FLGKGYSDGGC [MC4R_Y35_S30F]	c-Src	phosphorylation enrichment	0.592
GYQPDYGQPAG [SYP_Y278]	c-Src	phosphorylation enrichment	0.342
CEAMEYQESKQ [BTK_Y511_L512Q]	c-Src	phosphorylation enrichment	0.629
IHFAIYFLKFS [ARMC9_Y107_L108F_YF]	c-Src	phosphorylation enrichment	0.434
NAPNSYGRRPT [CDKN2A_Y44_I49T]	c-Src	phosphorylation enrichment	0.528
YFWDGYMPRQY [GSS_Y270_R267W]	c-Src	phosphorylation enrichment	0.772
HLEKKYVRRDS [CSF1R_Y708]	c-Src	phosphorylation enrichment	4.16
KAIMTYVPSFY [ACTN4_Y260_S262P]	c-Src	phosphorylation enrichment	0.472

Dear colleague, could you send me phosphorylation enrichment for each of the items below? Thanks.
1. TVLEHYRRTHC [MYBPC3_Y1119]
2. SCRENYSYSEE [LEMD3_Y258_D260Y]
3. RFLFFYSFLLK [PTEN_Y178_V175L_YF]
4. FGGLRYGFGVL [KRTAP20-2_Y13_YF]
5. GQDLFYEDEDL [PACS1_Y303]
6. RHIEKYVDQGK [IRAK3_Y61]

[0.395, 0.47, 1.41, 0.35, 0.598, 0.687]
